This collection of values is drawn from BindingDB's records for doi:10.1021/np980122t.

experiment: Inhibition of Naja naja venom group1 sPLA2 at 10 uM by liquid scintillation counting
Measure name: pIC50
Here pIC50 is given on a logarithmic scale as minus log10 of the concentration in mol/L.

Compound	Measured number
CC1=C(CC/C(C)=C/CCC2=CC[C@H](C3=CC(=O)O[C@H]3O)O[C@H]2O)C(C)(C)CCC1	4.77

Q: Returns the measured pIC50 for the input compound. Input: C[C@H]1CC[C@@]23C[C@]2(C)CCC[C@@H]3[C@@]1(C)CCC1=CC[C@H](C2=CC(=O)O[C@H]2O)OC1 [cacospongionolide]
Ans: 5.46

---

assay: Inhibition of rat air pouch group2 sPLA2 at 10 uM by liquid scintillation counting
# maps each entry to its inhibition
# output: bare number, implied unit %

# annotated cases, reported inhibition shown
Molecule	Measurement units	inhibition
CC1=C(CC/C(C)=C/CCC2=CC[C@H](C3=CC(=O)O[C@H]3O)O[C@H]2O)C(C)(C)CCC1	%	38.4
CC1=CCC[C@@H]2[C@@](C)(CCC3=CC[C@H](C4=CC(=O)O[C@H]4O)OC3)[C@@H](C)CC[C@@]12C [cacospongionolide E]	%	65.1

Q: Given C[C@H]1CC[C@@]23C[C@]2(C)CCC[C@@H]3[C@@]1(C)CCC1=CC[C@H](C2=CC(=O)O[C@H]2O)OC1 [cacospongionolide] , state its recorded inhibition.
Ans: 21.8

Q: Entry under review: C=C1CCC[C@H]2[C@](C)(CCC3=CCC(C4=CC(=O)OC4O)OC3)[C@H](C)CC[C@]12C (some centres undefined) [CACOSPONGIONOLIDE B] . Reported inhibition?
Ans: 36.9
